B1: FAM164C (parent)
chain: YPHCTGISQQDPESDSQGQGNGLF

# Variants of: B1
# method-description: protein stability index of a GFP-peptide fusion (GPS, HEK-293T) (PSI 1-6); higher = more stable;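 also: lentivirally expressed fusions sorted by FACS into six bins by GFP to DsRed ratio, PSI derived from sequencing read proportions per bin multiplied by bin number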
# conditions: c terminus: a fixed tail appended
measured-endpoint: protein stability index
The reply should be a number, written without any unit.

# count of solved cases: 5
[
  {
    "variant-descriptor": "Y1P",
    "protein stability index": 5.37
  },
  {
    "variant-descriptor": "S8N",
    "protein stability index": 3.39
  },
  {
    "variant-descriptor": "Q9F",
    "protein stability index": 3.05
  },
  {
    "variant-descriptor": "Q19L",
    "protein stability index": 3.3
  },
  {
    "variant-descriptor": "S8M",
    "protein stability index": 3.33
  }
]

Read the next record carefully.
Query :: Supply protein stability index value. Item: `Q19G`
Result :: 4.21
